meta.source: patent US20230183291A1

- measured-target: T1, Biotinylated Human ACE2, His, Avitag protein (ACROBiosystems, AC2-H82E6) (human, UniProt Q9BYF1 18-740)
- T1 construct: also called biotinylated ACE2; ACE2 protein; not shown: His tag and Avitag
- T1 sequence (Q9BYF1 18-740 limits assumed): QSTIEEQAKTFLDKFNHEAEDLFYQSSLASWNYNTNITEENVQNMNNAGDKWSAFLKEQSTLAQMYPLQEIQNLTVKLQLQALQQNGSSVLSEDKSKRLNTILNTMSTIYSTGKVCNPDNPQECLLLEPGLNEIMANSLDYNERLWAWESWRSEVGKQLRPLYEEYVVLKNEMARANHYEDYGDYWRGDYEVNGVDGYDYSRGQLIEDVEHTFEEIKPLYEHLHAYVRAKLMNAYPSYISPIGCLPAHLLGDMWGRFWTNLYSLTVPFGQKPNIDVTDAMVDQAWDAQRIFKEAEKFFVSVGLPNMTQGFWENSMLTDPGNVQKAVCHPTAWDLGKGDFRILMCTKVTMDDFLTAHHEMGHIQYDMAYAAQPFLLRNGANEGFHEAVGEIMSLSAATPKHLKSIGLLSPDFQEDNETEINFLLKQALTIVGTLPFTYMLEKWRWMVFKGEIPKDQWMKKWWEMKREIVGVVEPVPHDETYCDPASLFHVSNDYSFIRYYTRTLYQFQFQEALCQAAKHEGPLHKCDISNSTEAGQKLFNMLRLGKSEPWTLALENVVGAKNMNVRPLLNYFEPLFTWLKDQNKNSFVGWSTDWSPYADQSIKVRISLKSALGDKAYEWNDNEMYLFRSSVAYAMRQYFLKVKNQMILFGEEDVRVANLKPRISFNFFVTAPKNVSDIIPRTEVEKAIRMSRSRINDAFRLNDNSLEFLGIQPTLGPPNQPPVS
- experiment-description: SPR single cycle kinetics, ACE2 captured on CAP chip, peptide analyte; geometric mean
Numbered stars: 1 amine (or outer) side, 2 acyl side, 3 side chain; on linkers, the order of the positions; unused ones are H or OH. Bridge positions count the residues as written; N and C are the ends. Square brackets hold non-standard residues; d marks the D form. Ends that are not written are not given here. TATA = O=C(CC[*:1])N1CN(C(=O)CC[*:2])CN(C(=O)CC[*:3])C1; Phe(3-F) = N[C@@H](Cc1cccc(F)c1)C(=O)O; Phe(3-Me) = Cc1cccc(C[C@H](N)C(=O)O)c1; Phe(4-Me) = Cc1ccc(C[C@H](N)C(=O)O)cc1; Phe(2-Me) = Cc1ccccc1C[C@H](N)C(=O)O; hArg = N=C(N)NCCCC[C@H](N)C(=O)O; PYA = propargyl-acid
measured-property: Kd

ACNAVLCSWARANS[Phe(2-Me)]CA (linker 2-7-16 via TATA, bicyclic peptide, TATA scaffold) [BCY17335] yielded Kd of 2.5 nM

According to the records, this binder ACDTLYKCWRGRCA (linker 2-8-13 via TATA, bicyclic peptide, TATA scaffold) [BCY17153] displays Kd of 91.7 nM

Lab book: Kd of ACNAVLCSWARANS[Phe(3-F)]CA (linker 2-7-16 via TATA, bicyclic peptide, TATA scaffold) [BCY17342] noted as 3.3 nM

Record summary for ACAEIYKCWRGRCA (linker 2-8-13 via TATA, bicyclic peptide, TATA scaffold) [BCY17152] : reported Kd = 120 nM

Kd recorded for this binder, ACPSQYKCWRGKCA (linker 2-8-13 via TATA, bicyclic peptide, TATA scaffold) [BCY15427] , is 150 nM

For record ACNTVLCGWARANSLCA (linker 2-7-16 via TATA, bicyclic peptide, TATA scaffold) [BCY17162] the listed Kd is 5.7 nM

Kd reported for this binder ACNTVLCAWARANSYCA (linker 2-7-16 via TATA, bicyclic peptide, TATA scaffold) [BCY17161] : 4.2 nM

Note to self: Kd recorded for Ac-ACNAVLCSWARANSFCA (linker 2-7-16 via TATA, bicyclic peptide, TATA scaffold) [BCY17691] was 3.9 nM

Data point: Ac-CNTVLCSWA[hArg]ANSFC (linker 1-6-15 via TATA, bicyclic peptide, TATA scaffold) [BCY18657] ; Kd = 69.3 nM

Kd reported for this binder Ac-CNAVLCSWA[hArg]ANSFCK(PYA) (linker 1-6-15 via TATA, bicyclic peptide, TATA scaffold) [BCY18784] : 25.3 nM

Kd for ACESLYKCWRGRCA (linker 2-8-13 via TATA, bicyclic peptide, TATA scaffold) [BCY17154] is 104 nM

binder ACNAVLCSWARANSFCA (linker 2-7-16 via TATA, bicyclic peptide, TATA scaffold) [BCY15429] , Kd observed: 3.4 nM

Form: binder = Ac-CN[hArg]VLCSWA[hArg]ANSFC (linker 1-6-15 via TATA, bicyclic peptide, TATA scaffold) [BCY18350] ; Kd = 8.3 nM

Note to self: Kd recorded for ACNTVLCAWATQNSLCA (linker 2-7-16 via TATA, bicyclic peptide, TATA scaffold) [BCY17164] was 14.8 nM

Entry ACNRVLCAWATANSMCA (linker 2-7-16 via TATA, bicyclic peptide, TATA scaffold) [BCY17159] ; Kd = 4.7 nM

// Kd value for ACNTVLCAWAMNNSMCA (linker 2-7-16 via TATA, bicyclic peptide, TATA scaffold) [BCY17163] : 36.8 nM

The binder Ac-CNSVLCSWA[hArg]ANSFC (linker 1-6-15 via TATA, bicyclic peptide, TATA scaffold) [BCY18658] showed Kd equal to 6.7 nM

Noted for ACNTVLCNWARYNSLCA (linker 2-7-16 via TATA, bicyclic peptide, TATA scaffold) [BCY17160] : its Kd reads 4.2 nM

Just so you know, measured Kd for ACTELYKCWRGRCA (linker 2-8-13 via TATA, bicyclic peptide, TATA scaffold) [BCY17156] came out at 151 nM

GET /value?item= ACNAVLCSWARANS[Phe(4-Me)]CA (linker 2-7-16 via TATA, bicyclic peptide, TATA scaffold) [BCY17337] &field=Kd returns 5 nM

Form: binder = ACNQVLCRWAQVNSMCA (linker 2-7-16 via TATA, bicyclic peptide, TATA scaffold) [BCY17158] ; Kd = 4 nM

# Kd (binder: ACNKVLCSWASRNSMCA (linker 2-7-16 via TATA, bicyclic peptide, TATA scaffold) [BCY17157] ) is 11.8 nM

Entry under test: ACNAVLCSWARANS[Phe(3-Me)]CA (linker 2-7-16 via TATA, bicyclic peptide, TATA scaffold) [BCY17336] . Its Kd was 8.3 nM

Entry ACSPVLCAWATRNSLCA (linker 2-7-16 via TATA, bicyclic peptide, TATA scaffold) [BCY17165] — recorded Kd = 12.5 nM
